Hi there, I'd appreciate the recorded pIC50 for every entry that follows.
Tested on: SMMC-7721
Assay: Antiproliferative activity against human SMMC7721 cells after 48 hrs by MTT assay
Format: functional, cell-based
Details: SMMC-7721, 48 h
Answers are plain numbers, as −log10 of the molar value.

Previously resolved entries follow.
SMMC-7721 data for "O=C1c2cccc3cccc(c23)C(=O)N1CCCCNCCCCNCCCCNC1CCCCC1" ; its pIC50: 4.84

Bench note, SMMC-7721: "Cl.Cl.Cl.O=C1c2cccc3cccc(c23)C(=O)N1CCCNCCCNCCCNC1CC1" , pIC50 reads 5.29

The measured pIC50 that "O=C1c2cccc3cccc(c23)C(=O)N1CCCNCCCCNCCCNC1CCCCC1" showed for SMMC-7721 is 4.52

Observed pIC50, SMMC-7721, "CCCNCCCNCCCCNCCCN1C(=O)c2cccc3cccc(c23)C1=O" : 5.18

Turning now to a further molecule:
Record for "CCNCCCNCCCNCCCN1C(=O)c2cccc3cccc(c23)C1=O" under target or system SMMC-7721: pIC50 reported as 5.11
